# Tested on: MS2 coat protein
# EXPERIMENT DESCRIPTION: apparent Kd, MS2 coat protein; higher = weaker binding; RNA-MaP array; FMN 200 µM where present
# RECORDED CONDITIONS: designed as: OFF switch for flavin mononucleotide; no ligand
Classify as follows. Reported apparent Kd greater than or equal to 40 nM: true (1). Reported apparent Kd below: false (0).

# INPUT SEQUENCE, TESTED SYSTEM, LABEL CLASS
data = [
    ("GUGCGGUAGGAGAAGGACGGAGGCUUCUUUUCAUACAUGAGGAUCACCCAUGUAGGAUAUCCUACCUCACGCGGCCUACUACUG", "MS2 coat protein", "false (0)"),
    ("GGUACUCAAAGAGUACCAAUACGUACAUGAGGAUCACCCAUGUAGGAUAUGCUACUCAAAGAGUAGCAGAAGGACAUGUGCCUA", "MS2 coat protein", "false (0)"),
    ("CGAUAUUAUGCAGGAUAUCUUCCUUGAAUGAGGAGAGAAGGGCAUAGGGAGACAUAAGCCUUAUUACAUGAGGAUCACCCAUGU", "MS2 coat protein", "false (0)"),
    ("CCCUCACAUGAGGAUCACCCAUGUCAGGAUAUCUCACAUCGGCCUUAGGCCAAUGUCAAGAGAAGGGACGUAUC", "MS2 coat protein", "false (0)"),
    ("AUGGUACAUGAGGAUCACCCAUGUUAGGAUAUCGCGUGUUCUAAAACUAAGAGAUACACGAGAAGGGACGACAU", "MS2 coat protein", "true (1)"),
    ("CGAUGACACAGUCAUCCAAUACGAACAUGAGGAUCACCCAUGUAGGAUAUGGUACUCACAGAGUAGCAGAAGGACAUGUGCCUU", "MS2 coat protein", "true (1)"),
    ("UGUCAUAUAUAGAAGGGUAGUAGGGUUUUACAUGAGGAUCACCCAUGUAUUAUAGGAUAUGUGUAUAGUUUUUAUUCAAGUAUA", "MS2 coat protein", "false (0)"),
    ("CGGUACUUAGGAUAUACAUGAGGAUCACCCAUGUAGAAAUGGUGGGUGCCGUCCUGUGGUAGAAGGAAGAAUCG", "MS2 coat protein", "false (0)"),
    ("CGAAACUACGAGAAGGACAUGUGGUCCUUCAGUUACAUGAGGAUCACCCAUGUAGGAUAUCGUAGUUUCAGGAUCGUGAGAUCA", "MS2 coat protein", "false (0)"),
    ("AUAAUUUUAUAAUUCUUUUUAUUCAGAAGGCAUAACAUGAGGAUCACCCAUGUAAAUUAAUGUUAUGAGGAUAUGAUUUGGUUA", "MS2 coat protein", "false (0)"),
    ("GAGAUGUGAGGAUAUCUGGACCGUGGAAGAGCCACGGUCCGAGAGAAGGCACAUGAGGAUCACCCAUGUGAUGA", "MS2 coat protein", "false (0)"),
    ("GGGCUGUCAGGAUAUAGUUCGAGUUCGGAAAUGAGCUUGAGCUAGAAGGGACAUGAGGAUCACCCAUGUGGCCC", "MS2 coat protein", "false (0)"),
    ("ACAUGAGGAUCACCCAUGUAUUACAUGGUUAAGUUUAUUAACAGAAGGCGAAAAUACCACUUUUUCGAGGAUAUGUUUUCUAUA", "MS2 coat protein", "true (1)"),
    ("CACUGCAAUGUAGGAUAUCGACUGGAAUACAGUCGAGAAGGACAUGAGGAUCACCCAUGUAAUCCUAAUAAUAAAUAAGCAGUG", "MS2 coat protein", "false (0)"),
    ("UCAUACAUGACAUGACAUGACAUGAGGAUCACCCAUGUUUACAAGGAUAUGUACAUGAAACAUGUACAGAAGGUGUAUUGGACU", "MS2 coat protein", "true (1)"),
    ("GUGUAGUCAGGAUAUACAUAGGAAGAUAAUAUAAUAUAAGUACAUGAGGAUCACCCAUGUAGAAGGGACAGUGU", "MS2 coat protein", "false (0)"),
]

Hey, just so you know, these numbers are from the EternaBench riboswitch data.
